TARGET: Dihydrofolate reductase (Homo sapiens)
Sequence (P00374 whole entry): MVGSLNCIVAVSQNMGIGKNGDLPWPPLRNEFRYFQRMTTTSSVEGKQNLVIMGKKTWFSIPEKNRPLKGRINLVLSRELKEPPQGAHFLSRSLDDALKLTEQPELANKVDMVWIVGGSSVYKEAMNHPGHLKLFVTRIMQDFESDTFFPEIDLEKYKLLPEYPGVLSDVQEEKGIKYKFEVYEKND
METHOD: Inhibition of recombinant human DHFR using dihydrofolate as substrate after 15 mins in presence of NADPH
Entries whose IC50 is below 8 µM take Fulfilled; entries at or above 8 µM take Not fulfilled.

INSERT INTO measurements (molecule, category_label) VALUES
  ('Nc1nc(N)c2nc(/C=C/C=C/c3ccccc3)ccc2n1', 'Not fulfilled'),
  ('Nc1nc(N)c2nc(/C=C/C(=O)/C=C/c3ccccc3)ccc2n1', 'Not fulfilled'),
  ('Nc1nc(N)c2nc(CCC(O)CCc3ccccc3)ccc2n1 (configuration not stated)', 'Fulfilled'),
  ('Nc1nc(N)c2nc(/C=C/CCCc3ccccc3)ccc2n1', 'Fulfilled'),
  ('Nc1nc(N)c2nc(CCCc3ccccc3)ccc2n1', 'Fulfilled'),
  ('Nc1nc(N)c2nc(CCCCc3ccccc3)ccc2n1', 'Fulfilled'),
  ('Nc1nc(N)c2nc(/C=C/Cc3ccccc3)ccc2n1', 'Fulfilled'),
  ('Nc1nc(N)c2nc(/C=C/C(=O)c3ccccc3)ccc2n1', 'Not fulfilled'),
  ('Nc1nc(N)c2nc(CCCCCc3ccccc3)ccc2n1', 'Fulfilled'),
  ('Nc1nc(N)c2nc(CCC(=O)c3ccccc3)ccc2n1', 'Not fulfilled'),
  ('Nc1nc(N)c2nc(CCC(O)c3ccccc3)ccc2n1 (configuration not stated)', 'Fulfilled');

Where do these numbers come from? They come from ChEMBL document CHEMBL4219247.
